biological target: purified human Factor XIa (Homo sapiens (Human), UniProt P03951); assay: Factor XIa chromogenic substrate (S-2366) inhibition assay; format: biochemical; details: substrate S-2366, activity ranges, Table A
Sequence (P03951 388-625): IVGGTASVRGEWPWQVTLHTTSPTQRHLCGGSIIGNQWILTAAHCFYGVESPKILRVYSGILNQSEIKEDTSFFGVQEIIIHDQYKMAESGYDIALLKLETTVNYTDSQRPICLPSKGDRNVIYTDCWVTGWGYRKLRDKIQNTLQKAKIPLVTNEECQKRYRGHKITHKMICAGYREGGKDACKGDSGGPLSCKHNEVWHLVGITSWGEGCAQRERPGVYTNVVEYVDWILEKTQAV
Sequence (P03951 19-387 partner): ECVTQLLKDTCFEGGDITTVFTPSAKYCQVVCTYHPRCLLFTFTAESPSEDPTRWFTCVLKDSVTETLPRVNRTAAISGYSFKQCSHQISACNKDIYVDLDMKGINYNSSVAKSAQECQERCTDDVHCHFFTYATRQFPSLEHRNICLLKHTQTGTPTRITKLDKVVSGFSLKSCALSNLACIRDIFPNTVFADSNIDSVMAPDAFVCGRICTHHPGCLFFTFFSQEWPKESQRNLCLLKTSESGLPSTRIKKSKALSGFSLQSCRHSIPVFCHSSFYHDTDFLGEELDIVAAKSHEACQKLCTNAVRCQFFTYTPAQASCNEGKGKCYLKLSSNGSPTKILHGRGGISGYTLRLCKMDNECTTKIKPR
pKi: −log10 of the molar value.
Readout: pKi

COC(=O)[C@H]1CC[C@@H](NC(=O)C2c3cccc(N4CCC(N5CCCC5)CC4)c3CCN2C(=O)/C=C/c2c(-n3cnnn3)ccc(Cl)c2F)CC1 (mixture of isomers)    8.00 to 8.30
O=C(Nc1ccc(Cl)cc1)C1c2cccc(N3CCC(N4CCCC4)CC3)c2CCN1C(=O)C=Cc1c(-n2cnnn2)ccc(Cl)c1F (stereo not drawn) [Example 112]    > 8.30

Next item in the queue.
What measured pKi is associated with O=C(O)c1ccc(NC(=O)C2c3cccc(N4CCC5(CC4)OCCO5)c3CCN2C(=O)/C=C/c2c(-n3cnnn3)ccc(Cl)c2F)cc1 (racemic) on purified human Factor XIa (Homo sapiens (Human), UniProt P03951)?
> 8.30

----------
target: purified human Factor XIa (Homo sapiens (Human), UniProt P03951); assay: Factor XIa chromogenic substrate (S-2366) inhibition assay; type: biochemical; conditions: substrate S-2366, activity ranges, Table A
Where a name gives a salt, the structure may show the parent alone.
Readout: Ki

Would you please look over these solved cases?
CC(=O)c1ccc(Cl)c(F)c1/C=C/C(=O)N1CCc2c(cccc2N2CCCCC2=O)[C@@H]1C(=O)Nc1ccc(C(=O)O)cc1    5 to 10 nM
O=C(O)c1ccc(NC(=O)C2c3cccc(N4CCNCC4)c3CCN2C(=O)/C=C/c2c(-n3cnnn3)ccc(Cl)c2F)cc1 (stereo not drawn)    < 5 nM
CC(=O)c1ccc(Cl)c(F)c1/C=C/C(=O)N1CCc2c(cccc2N2CCC(N3CCCC3)CC2)C1C(=O)Nc1ccc(C(=O)O)cc1 (racemic)    < 5 nM
COC(=O)[C@H]1CC[C@H](NC(=O)C2c3cccc(N4CCC(N5CCCC5)CC4)c3CCN2C(=O)/C=C/c2c(-n3cnnn3)ccc(Cl)c2F)CC1 (mixture of isomers)    5 to 10 nM
CC1(C)CCN(c2cccc3c2CCN(C(=O)/C=C/c2c(-n4cnnn4)ccc(Cl)c2F)C3C(=O)Nc2ccc(C(=O)O)cc2)CC1 (racemic)    < 5 nM
CCOC(=O)c1ccc(NC(=O)C2c3cccc(N4CCN(C(=O)OC(C)(C)C)CC4=O)c3CCN2C(=O)/C=C/c2c(-n3cnnn3)ccc(Cl)c2F)cc1 (racemic)    5 to 10 nM
CN(C)[C@@H]1CCN(c2cccc3c2CCN(C(=O)/C=C/c2c(-n4cnnn4)ccc(Cl)c2F)[C@@H]3C(=O)Nc2ccc(C(=O)O)cc2)C1 [Example 210, bis-TFA salt]    < 5 nM
CCOC(=O)c1ccc(NC(=O)C2c3cccc(N4CCC(N5CCCC5)CC4)c3CCN2C(=O)C=Cc2c(C#N)ccc(Cl)c2F)cc1 (stereo not drawn)    5 to 10 nM

Now let's try a different one.
Need Ki of CCOC(=O)c1ccc(NC(=O)C2c3cccc(N4CC5CN(C)CC5C4)c3CCN2C(=O)C=Cc2c(-n3cnnn3)ccc(Cl)c2F)cc1 (stereo not drawn) , thanks.
5 to 10 nM

----------
biological target: UniProt:P03951; test: Factor XIa chromogenic substrate (S-2366) inhibition assay; type: biochemical; conditions: substrate S-2366, Table 1
Measured Ki, listed per entry.

Before answering, review these 3 worked examples.
O=C(O)c1ccc(NC(=O)C2c3cccc(N4CCNCC4)c3CCN2C(=O)C=Cc2c(-n3cnnn3)ccc(Cl)c2F)cc1 (centres unmarked)    < 5 nM
O=C(O)c1ccc(NC(=O)C2c3cccc(N4CCN(C(=O)OCc5ccccc5)CC4=O)c3CCN2C(=O)/C=C/c2c(-n3cnnn3)ccc(Cl)c2F)cc1 (racemic)    < 5 nM
CCOC(=O)c1ccc(NC(=O)C2c3cccc(N4CCC(N5CCCC5=O)CC4)c3CCN2C(=O)C=Cc2c(-n3cnnn3)ccc(Cl)c2F)cc1 (centres unmarked)    1010 nM

Provide the documented Ki with UniProt:P03951 as the system for CCOC(=O)c1ccc(NC(=O)C2c3cccc(N4CCC(N5CCCC5)CC4)c3CCN2C(=O)C=Cc2c(-n3cnnn3)ccc(Cl)c2F)cc1 (centres unmarked)
< 5 nM

// repeat for COC(=O)c1ccc(NC(=O)C2c3cccc(N4CCC(N5CCCC5)CC4)c3CCN2C(=O)/C=C/c2c(C(C)=O)ccc(Cl)c2F)cc1 (racemic) and report
< 5 nM

Likewise for CN(C)CCN1CCN(c2cccc3c2CCN(C(=O)C=Cc2c(-n4cnnn4)ccc(Cl)c2F)C3C(=O)Nc2ccc(C(=O)O)cc2)CCC1=O (centres unmarked) ?
< 5 nM

Entry CC(C)(C)OC(=O)c1ccc(NC(=O)C2c3cccc(N4CCNCC4)c3CCN2C(=O)/C=C/c2c(-n3cnnn3)ccc(Cl)c2F)cc1 (centres unmarked) please
49.7 nM

And then O=C(O)c1ccc(NC(=O)C2c3cccc(N4CCC(C(=O)N5CCCC5)CC4)c3CCN2C(=O)/C=C/c2c(-n3cnnn3)ccc(Cl)c2F)cc1 (racemic) , what is it?
< 5 nM
